Values from paper PMC11435065

Experiment: Urinary and fecal cumulative excretion of SGC003F in rats with or without tariquidar
Assay type: in vivo
Details: male, SD, rat, urine and faeces, oral, SGC003F p.o. 1 mg/kg, with tariquidar i.v. 7.5 mg/kg, 120 h, read-out: U + F (total urinary and fecal recovery)
metric: dose excreted
Returns: string containing the number followed by the unit.

(Q) Recorded dose excreted for COC(=O)Nc1c(N)nc(-c2nn(Cc3sccc3F)c3ncc(F)cc23)nc1N [SGC003F] , please?
(A) 37.9%

----------
Assay: Plasma pharmacokinetics of SGC003F in rats with or without tariquidar
Type: in vivo, rat
Conditions: male, Sprague-Dawley, rat, plasma, iv, 1 mg/kg, SGC003F i.v. 1 mg/kg, with tariquidar i.v. 7.5 mg/kg
metric: clearance (mL/min/kg)
Answers are plain numbers, in mL/min/kg.

(Q) Recorded clearance for COC(=O)Nc1c(N)nc(-c2nn(Cc3sccc3F)c3ncc(F)cc23)nc1N [SGC003F] , please?
(A) 2.03

----------
Assay: Urinary and fecal cumulative excretion of SGC003F in rats with or without tariquidar
Type: in vivo
Conditions: male, SD, rat, urine and faeces, po, 1 mg/kg, SGC003F p.o. 1 mg/kg, single, within 120 h, read-out: U + F (total urinary and fecal recovery of parent drug)
metric: dose excreted (%)
Answers are plain numbers, in %.

(Q) Recorded dose excreted for COC(=O)Nc1c(N)nc(-c2nn(Cc3sccc3F)c3ncc(F)cc23)nc1N [SGC003F] , please?
(A) 71.5

----------
Experiment: Tissue distribution of SGC003F in rats with or without tariquidar
Type: in vivo
Conditions: male, Sprague-Dawley, rat, liver, oral, SGC003F p.o. 1 mg/kg, with tariquidar p.o. 15 mg/kg, read-out: KP2, Liver
metric: Kp
Give bare numbers.

(Q) Recorded Kp for COC(=O)Nc1c(N)nc(-c2nn(Cc3sccc3F)c3ncc(F)cc23)nc1N [SGC003F] , please?
(A) 0.95

----------
Assay: Tissue distribution of SGC003F in rats with or without tariquidar
Type: in vivo
Conditions: male, SD, rat, heart, po, 1 mg/kg, SGC003F p.o. 1 mg/kg, with tariquidar p.o. 15 mg/kg, read-out: AUC(0–24h), Heart
metric: AUC(0-t) (ng·h/mL)
Give bare numbers, in ng·h/mL.

(Q) Recorded AUC(0-t) for COC(=O)Nc1c(N)nc(-c2nn(Cc3sccc3F)c3ncc(F)cc23)nc1N [SGC003F] , please?
(A) 4750

----------
Assay: Tissue distribution of SGC003F in rats with or without tariquidar
Type: in vivo
Settings: male, SD, rat, small intestine, po, 1 mg/kg, SGC003F p.o. 1 mg/kg, with tariquidar i.v. 7.5 mg/kg, read-out: AUC(0–24h), Intestine
metric: AUC(0-t) (ng·h/mL)
One number for each entry, in ng·h/mL.

(Q) Recorded AUC(0-t) for COC(=O)Nc1c(N)nc(-c2nn(Cc3sccc3F)c3ncc(F)cc23)nc1N [SGC003F] , please?
(A) 5630

----------
Experiment: Bidirectional transport across Caco-2 monolayer cells
Format: in vitro ADME
Settings: human, Caco-2 cells, read-out: ER value (efflux ratio)
metric: efflux ratio at 2 h, 2 µM
Answers are plain numbers.

(Q) Recorded efflux ratio at 2 h, 2 µM for COC(=O)Nc1c(N)nc(-c2nn(Cc3sccc3F)c3ncc(F)cc23)nc1N [SGC003F] , please?
(A) 7.2

----------
Assay: Plasma pharmacokinetics of SGC003F in rats with or without tariquidar
Format: in vivo, rat
Details: male, Sprague-Dawley, rat, plasma, po, 1 mg/kg, rat plasma, SGC003F p.o. 1 mg/kg, with tariquidar i.v. 7.5 mg/kg
Description: Adult Sprague Dawley rats (230–280 g) were obtained from Beijing Vital River Laboratory Animal Technology Co., Ltd. (Beijing, China). […] The main pharmacokinetic parameters, such as time to peak (tmax), half-life (t1/2), peak concentration (Cmax), and area under the curve (AUC), bioavailability (F), were calculated using a non-compartmental model with WinNonlin 8.1 software (Princeton, NJ, USA). […]
metric: Cmax (ng/mL)
Give bare numbers, in ng/mL.

(Q) Recorded Cmax for COC(=O)Nc1c(N)nc(-c2nn(Cc3sccc3F)c3ncc(F)cc23)nc1N [SGC003F] , please?
(A) 722

----------
Assay: Plasma pharmacokinetics of SGC003F in rats with or without tariquidar
Type: in vivo, rat
Settings: male, Sprague-Dawley, rat, plasma, po, 1 mg/kg, SGC003F p.o. 1 mg/kg, single
metric: Tmax (h)
Answers are plain numbers, in h.

(Q) Recorded Tmax for COC(=O)Nc1c(N)nc(-c2nn(Cc3sccc3F)c3ncc(F)cc23)nc1N [SGC003F] , please?
(A) 1.33

----------
Assay: Plasma pharmacokinetics of SGC003F in rats with or without tariquidar
Type: in vivo, rat
Conditions: male, Sprague-Dawley, rat, plasma, po, 1 mg/kg, SGC003F p.o. 1 mg/kg, with tariquidar p.o. 15 mg/kg
metric: Tmax (h)
Numbers only, in h.

(Q) Recorded Tmax for COC(=O)Nc1c(N)nc(-c2nn(Cc3sccc3F)c3ncc(F)cc23)nc1N [SGC003F] , please?
(A) 2.33

----------
Test: Plasma pharmacokinetics of SGC003F in rats with or without tariquidar
Type: in vivo, rat
Conditions: male, Sprague-Dawley, rat, plasma, po, 1 mg/kg, rat, SGC003F p.o. 1 mg/kg, with tariquidar i.v. 7.5 mg/kg; read-out: F (bioavailability)
Method: Adult Sprague Dawley rats (230–280 g) were obtained from Beijing Vital River Laboratory Animal Technology Co., Ltd. (Beijing, China). […] The main pharmacokinetic parameters, such as time to peak (tmax), half-life (t1/2), peak concentration (Cmax), and area under the curve (AUC), bioavailability (F), were calculated using a non-compartmental model with WinNonlin 8.1 software (Princeton, NJ, USA). […]
metric: bioavailability (%)
Answers are plain numbers, in %.

(Q) Recorded bioavailability for COC(=O)Nc1c(N)nc(-c2nn(Cc3sccc3F)c3ncc(F)cc23)nc1N [SGC003F] , please?
(A) 69.7

----------
Assay: Tissue distribution of SGC003F in rats with or without tariquidar
Format: in vivo
Conditions: male, SD, rat, heart, po, 1 mg/kg, SGC003F p.o. 1 mg/kg, with tariquidar i.v. 7.5 mg/kg, read-out: AUC(0–24h), Heart
metric: AUC(0-t) (ng·h/mL)
Give bare numbers, in ng·h/mL.

(Q) Recorded AUC(0-t) for COC(=O)Nc1c(N)nc(-c2nn(Cc3sccc3F)c3ncc(F)cc23)nc1N [SGC003F] , please?
(A) 3060

----------
Assay: Plasma pharmacokinetics of SGC003F in rats with or without tariquidar
Format: in vivo, rat
Settings: male, Sprague-Dawley, rat, plasma, po, 1 mg/kg, rat plasma, SGC003F p.o. 1 mg/kg, single
Experimental: Adult Sprague Dawley rats (230–280 g) were obtained from Beijing Vital River Laboratory Animal Technology Co., Ltd. (Beijing, China). […] The main pharmacokinetic parameters, such as time to peak (tmax), half-life (t1/2), peak concentration (Cmax), and area under the curve (AUC), bioavailability (F), were calculated using a non-compartmental model with WinNonlin 8.1 software (Princeton, NJ, USA). […]
metric: Cmax (µg/mL)
Answers are plain numbers, in µg/mL.

(Q) Recorded Cmax for COC(=O)Nc1c(N)nc(-c2nn(Cc3sccc3F)c3ncc(F)cc23)nc1N [SGC003F] , please?
(A) 0.673

----------
Test: Tissue distribution of SGC003F in rats with or without tariquidar
Format: in vivo
Conditions: male, SD, rat, small intestine, po, 1 mg/kg, SGC003F p.o. 1 mg/kg, single, read-out: AUC(0–24h), Intestine
metric: AUC(0-t) (ng·h/mL)
Give bare numbers, in ng·h/mL.

(Q) Recorded AUC(0-t) for COC(=O)Nc1c(N)nc(-c2nn(Cc3sccc3F)c3ncc(F)cc23)nc1N [SGC003F] , please?
(A) 2530

----------
Experiment: Tissue distribution of SGC003F in rats with or without tariquidar
Format: in vivo
Details: male, Sprague-Dawley, rat, liver, po, 1 mg/kg, SGC003F p.o. 1 mg/kg, single, read-out: KP2 (tissue/plasma AUC), Liver
metric: Kp
Numbers only.

(Q) Recorded Kp for COC(=O)Nc1c(N)nc(-c2nn(Cc3sccc3F)c3ncc(F)cc23)nc1N [SGC003F] , please?
(A) 0.91

----------
Experiment: Tissue distribution of SGC003F in rats with or without tariquidar
Type: in vivo
Details: male, Sprague-Dawley, rat, liver, oral, SGC003F p.o. 1 mg/kg, with tariquidar i.v. 7.5 mg/kg, read-out: KP2, Liver
metric: Kp

(Q) Recorded Kp for COC(=O)Nc1c(N)nc(-c2nn(Cc3sccc3F)c3ncc(F)cc23)nc1N [SGC003F] , please?
(A) 0.86

----------
Test: Tissue distribution of SGC003F in rats with or without tariquidar
Type: in vivo
Conditions: male, Sprague-Dawley, rat, kidney, oral, SGC003F p.o. 1 mg/kg, with tariquidar p.o. 15 mg/kg, read-out: KP2, Kidney
metric: Kp

(Q) Recorded Kp for COC(=O)Nc1c(N)nc(-c2nn(Cc3sccc3F)c3ncc(F)cc23)nc1N [SGC003F] , please?
(A) 1.16
